Values were extracted from the METLIN SMRT retention time set (Domingo-Almenara et al. 2019).

Exercise: for every item that follows, state its recorded RP-LC retention time.
Experiment: gradient 5% acetonitrile 3 min, to 50% in 2 min, to 85% in 15 min, held 3 min, 100 µL/min
Details: column: Zorbax Extend-C18 2.1 x 50 mm; eluents: water / acetonitrile, 0.1% formic acid
State just the number; it will be interpreted in s.

stdin: GET /values?readout=RP-LC retention time&item= CCc1ccc(NC(=O)N2C[C@@H](F)C[C@H]2C(=O)N2CCCCC2)cc1
stdout: 728

stdin: Cool, now COc1ccc(OCC(=O)N2CCN(c3cc(=O)n(C(C)C)c(=O)n3C(C)C)CC2)cc1
stdout: 846

stdin: Cool, now O=C(NCc1ccccn1)c1cn(-c2cc(N3CCOCC3)ncn2)cn1
stdout: 581

stdin: Cool, now CCc1ccc(NC(=O)Cn2c(=O)n(-c3ccc(F)cc3)c(=O)c3c2cc(C)n3C)cc1
stdout: 888

stdin: Cool, now CCOC(=O)C(=O)Nc1ccc(SCc2nnc(-c3ccccc3)o2)cc1
stdout: 881
